Ref: PubChem BioAssay

Molecular target: NADPH oxidase 5 (Homo sapiens)
Assay: NOX5-dependent H2O2 signal modulators, primary screen, NOX inhibitor project, cell-based, HEK293-NOX5, Amplex Red fluorescence (AID 1161)
Details: HEK293-NOX5, ionomycin, 45 min, higher = more signal
The entries below come with measured z-score values attached.
Give a plain numeric answer without units written out.

Inquiry: Fill blank: measured z-score of the compound `CC(=O)OC[C@H]1O[C@H](CC=NOC[C@@H](O)COCc2ccco2)C=C[C@@H]1OC(C)=O` is ____.
Reply text: 0.0957

---

Documented composite z-score across a set of compounds
Test system: Sonic hedgehog protein (Shh)
Assay: small-molecule binders of Shh protein, primary screen, biochemical, small-molecule microarray, 635/667 nm fluorescence (AID 1151);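 note: Shh protein binding to compounds spotted on small-molecule microarray slides; score combines spot fluorescence intensity with signal-to-noise across triplicate slides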
Settings: small-molecule microarray binding, 635 nm fluorescence; higher = more signal
The reply should be a number, written without any unit.

Look over these answered cases.
# compound, tested-system, quantitative-result
measured = [
    ("CCOC(=O)[C@H](Cc1ccccc1)NC(=O)CCC1CC(OC(=O)NCc2ccc3c(c2)OCO3)CC2(CCCC(COC(=O)NCCOC)O2)O1 (some centres undefined)", "Sonic hedgehog protein (Shh)", 1.91),
    ("COC(=O)[C@H](C)NC(=O)CCC1CC(OC(=O)NCc2cccc3ccccc23)CC2(CCCC(COC(=O)NCc3cccc(C(F)(F)F)c3)O2)O1 (some centres undefined)", "Sonic hedgehog protein (Shh)", 1.04),
    ("CO[C@@H](C1CCCCC1)[C@@H](C)[C@H](OCc1cccc(Br)c1)[C@@H](C)CO", "Sonic hedgehog protein (Shh)", 0.458),
]

Inquiry: // lookup composite z-score for COc1ccc(OC[C@@H]2CC3[C@@H](c4ccc(Br)cc4)[C@H](C)CC[C@H]3C(=O)O2)cc1 (some centres undefined)
Reply text: 0.391

Inquiry: Give its composite z-score value. Item: CC1(C)O[C@H]2OC([C@H](O)CON3C(=O)c4ccccc4C3=O)[C@H](O)[C@H]2O1 (some centres undefined)
Reply text: 0.0991

Inquiry: Name the reported composite z-score value associated with the compound `C[C@H]1C=CCC(=O)OC[C@H](C)C(=O)N2CCC[C@H]2C(=O)OC1`
Reply text: 2.35

Inquiry: Endpoint output: composite z-score of `O=C1[C@H]2[C@H]3[C@H](O)[C@H](O)CC(=NOC[C@@H](O)COCc4ccco4)[C@@H]3CC[C@H]2C(=O)N1C1CCCCC1` . Value?
Reply text: 1.94

Inquiry: Entry under review: CC(C)=NOC(C)CN1CCCc2nc(C)c(C)cc21 (centres undefined) . Reported composite z-score?
Reply text: 1.35

Inquiry: Item C[C@H]1CC[C@H]2C(=O)OC(COc3ccc(C(C)(C)C)cc3)CN2[C@@H]1c1ccc(Br)cc1 (some centres undefined) has what recorded composite z-score?
Reply text: 0.0438
